Recorded values, source patent WO2016073157A1.

SYSTEM NAME: T1, hVEGF109 (human, UniProt P15692-4 34-135, limits assumed)
T1 construct: Numbers count on the mature 165-amino acid VEGF, not on the precursor; also called human VEGF (hVEGF 109)
T1 sequence (looked up): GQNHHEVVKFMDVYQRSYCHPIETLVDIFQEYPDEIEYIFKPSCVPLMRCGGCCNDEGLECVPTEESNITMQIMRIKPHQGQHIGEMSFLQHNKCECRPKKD
EXPERIMENT: phage competition ELISA (phage IC50), hVEGF109 in solution and on the plate, VEGF inferred
PROPERTY LABEL: pIC50
Interpret pIC50 as the negative base-10 log of the concentration measured in mol/L.

Measured pIC50 of 5A12 4.2 LC.Q89H/LC.L93K ("D") (Fab, V domains shown, 5A12 4.2 variant; Fab on phage in the IC50 assay, purified Fab in SPR) VH: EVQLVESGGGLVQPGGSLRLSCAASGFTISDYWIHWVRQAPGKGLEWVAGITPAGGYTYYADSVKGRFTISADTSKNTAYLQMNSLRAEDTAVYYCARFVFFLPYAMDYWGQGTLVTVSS VL: DIQMTQSPSSLSASVGDRVTITCRASQFLSSFGVAWYQQKPGKAPKLLIYGASSLYSGVPSRFSGSGSGTDFTLTISSLQPEDFATYYCHQGLKSPLTFGQGTKVEIK : 8.43

Measured pIC50 of 5A12 4.2 LC.L92S (Fab, V domains shown, 5A12 4.2 variant; Fab on phage in the IC50 assay; also called LC-92S) VH: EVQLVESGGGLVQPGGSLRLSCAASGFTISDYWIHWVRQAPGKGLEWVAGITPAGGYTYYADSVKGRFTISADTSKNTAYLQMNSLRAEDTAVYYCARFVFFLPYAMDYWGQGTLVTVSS VL: DIQMTQSPSSLSASVGDRVTITCRASQFLSSFGVAWYQQKPGKAPKLLIYGASSLYSGVPSRFSGSGSGTDFTLTISSLQPEDFATYYCQQGSLSPLTFGQGTKVEIK : 7.56

Measured pIC50 of 5A12 4.2 LC.L93K (Fab, V domains shown, 5A12 4.2 variant; Fab on phage in the IC50 assay; also called LC-93K) VH: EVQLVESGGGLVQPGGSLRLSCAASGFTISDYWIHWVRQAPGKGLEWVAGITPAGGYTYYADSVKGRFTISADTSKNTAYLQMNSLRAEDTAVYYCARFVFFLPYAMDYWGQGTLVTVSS VL: DIQMTQSPSSLSASVGDRVTITCRASQFLSSFGVAWYQQKPGKAPKLLIYGASSLYSGVPSRFSGSGSGTDFTLTISSLQPEDFATYYCQQGLKSPLTFGQGTKVEIK : 9.32
